- target-or-test-system: T1, Peptide 8: Biotin-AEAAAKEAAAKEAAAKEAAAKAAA-Tyr-acid (N-terminal biotin; C-terminal acid)
- T1 construct: control peptide without PC
- T1 peptide: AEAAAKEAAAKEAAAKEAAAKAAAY
- method: scFv ELISA
Below: a set of entries, each annotated with reported OD450.

{"binder": "PcOxP_DB03_C12 (scFv, V domains shown, scFv in periplasmic extract) VH: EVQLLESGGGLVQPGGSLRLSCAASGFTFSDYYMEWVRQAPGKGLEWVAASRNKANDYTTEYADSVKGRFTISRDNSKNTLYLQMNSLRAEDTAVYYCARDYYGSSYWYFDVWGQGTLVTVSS VL: DIQMTQSPSSLSASVGDRVTITCTASESLYSSKHKVHYLAWYQQKPGKAPKLLIYGASNRYGGVPSRFSGSGSGTDFTLTISSLQPEDFATYYCAQFYSYPLTFGGGTKVEIK", "OD450 [OD450]": 0.05}
{"binder": "PcOxP_DB02_C02 (scFv, V domains shown, scFv in periplasmic extract) VH: EVQLLESGGGLVQPGGSLRLSCAASGFTFSDFYMEWVRQAPGKGLEWVAASRNKANDYTVEYADSVKGRFTISRDNSKNTLYLQMNSLRAEDTAVYYCARDYYGHSYWYFDVWGQGTLVTVSS VL: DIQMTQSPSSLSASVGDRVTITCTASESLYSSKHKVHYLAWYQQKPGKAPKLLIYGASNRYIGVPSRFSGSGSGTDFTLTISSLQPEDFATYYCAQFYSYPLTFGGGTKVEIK", "OD450 [OD450]": 0.05}
{"binder": "PcOxP_DB01_B05 (scFv, V domains shown, scFv in periplasmic extract) VH: EVQLLESGGGLVQPGGSLRLSCAASGFTASDFYMEWVRQAPGKGLEWVAASRNKWNDYTTEYADSVKGRFTISRDNSKNTLYLQMNSLRAEDTAVYYCARDYYGSSYWYFDVWGQGTLVTVSS VL: DIQMTQSPSSLSASVGDRVTITCTASESLYSSKHKVHYLAWYQQKPGKAPKLLIYGASSLQIGVPSRFSGSGSGTDFTLTISSLQPEDFATYYCAQFYSYPLTFGGGTKVEIK", "OD450 [OD450]": 0.05}
{"binder": "PcOxP_DB01_E06 (scFv, V domains shown, scFv in periplasmic extract) VH: EVQLLESGGGLVQPGGSLRLSCAASGFTFSDQYMEWVRQAPGKGLEWVAASRNKANDYTTEYADSVKGRFTISRDNSKNTLYLQMNSLRAEDTAVYYCARDYYGSSYWYFDLWGQGTLVTVSS VL: DIQMTQSPSSLSASVGDRVTITCTASESLYSSKHKVHYVAWYQQKPGKAPKLLIYGASNRYIGVPSRFSGSGSGTDFTLTISSLQPEDFATYYCAQFYYYPLTFGGGTKVEIK", "OD450 [OD450]": 0.05}
{"binder": "PcOxP_DB03_C11 (scFv, V domains shown, scFv in periplasmic extract) VH: EVQLLESGGGLVQPGGSLRLSCAASGFDFSDFYMEWVRQAPGKGLEWVAASRNKANDYTTDYADSVKGRFTISRDNSKNTLYLQMNSLRAEDTAVYYCARDYFGSSYWYFDVWGQGTLVTVSS VL: DIQMTQSPSSLSASVGDRVTITCTASESLYSSKHKVHYLAWYQQKPGKAPKLLIYGASNRYQGVPSRFSGSGSGTDFTLTISSLQPEDFATYYCAQFYFYPLTFGGGTKVEIK", "OD450 [OD450]": 0.04}
